# Tested on: T1, CEACAM1 antigen (Sino Biological, Inc.) (UniProt P13688 35-428)
# T1 construct: Bought antigen coated on the ELISA plate; construct not described; also called CEACAM1 (CD66a) antigen; CD66a
# T1 sequence (looked up): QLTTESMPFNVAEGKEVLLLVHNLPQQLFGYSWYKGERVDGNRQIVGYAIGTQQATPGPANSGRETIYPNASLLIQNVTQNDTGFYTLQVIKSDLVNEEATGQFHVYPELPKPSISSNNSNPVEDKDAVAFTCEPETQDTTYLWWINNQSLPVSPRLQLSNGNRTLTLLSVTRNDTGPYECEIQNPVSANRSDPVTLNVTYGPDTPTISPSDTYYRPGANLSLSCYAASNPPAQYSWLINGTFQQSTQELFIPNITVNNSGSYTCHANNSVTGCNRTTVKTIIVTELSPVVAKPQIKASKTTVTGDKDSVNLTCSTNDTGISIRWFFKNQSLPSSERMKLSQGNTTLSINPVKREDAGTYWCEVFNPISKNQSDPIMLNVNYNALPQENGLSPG
# Experiment: ELISA, coated CEACAM1 100 ng/well, antibody 10000.00 ng/ml
Readout: OD 450 nm (OD)

Binder	Unit symbol	Assay result
recombinant humanized anti-CD66c antibody Protein ID 3058 (Vk8 + VH11) (antibody, human IgG1, V domains shown, also called hu 3058; #86) VH: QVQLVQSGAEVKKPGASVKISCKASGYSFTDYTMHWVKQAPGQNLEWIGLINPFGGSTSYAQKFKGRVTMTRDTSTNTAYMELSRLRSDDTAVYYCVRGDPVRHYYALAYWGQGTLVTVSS VL: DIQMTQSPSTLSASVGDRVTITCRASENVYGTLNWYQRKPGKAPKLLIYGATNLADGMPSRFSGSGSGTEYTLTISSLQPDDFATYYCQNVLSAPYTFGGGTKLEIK	OD	0.42
recombinant humanized anti-CD66c antibody Protein ID 3043 (Vk8 + VH6) (antibody, human IgG1, V domains shown, also called hu 3043; #71) VH: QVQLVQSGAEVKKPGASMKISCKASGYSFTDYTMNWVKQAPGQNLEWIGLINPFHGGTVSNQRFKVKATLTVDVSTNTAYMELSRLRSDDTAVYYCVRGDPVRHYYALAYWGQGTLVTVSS VL: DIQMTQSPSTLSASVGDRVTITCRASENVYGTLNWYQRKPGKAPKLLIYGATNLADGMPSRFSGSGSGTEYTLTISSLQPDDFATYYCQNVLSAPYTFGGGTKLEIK	OD	0.91
recombinant humanized anti-CD66c antibody Protein ID 3007 (Vk7 + VH6) (antibody, human IgG1, V domains shown, also called hu 3007; #43) VH: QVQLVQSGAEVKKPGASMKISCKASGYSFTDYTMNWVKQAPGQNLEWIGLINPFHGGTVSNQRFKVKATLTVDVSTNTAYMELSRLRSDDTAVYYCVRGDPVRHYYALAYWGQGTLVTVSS VL: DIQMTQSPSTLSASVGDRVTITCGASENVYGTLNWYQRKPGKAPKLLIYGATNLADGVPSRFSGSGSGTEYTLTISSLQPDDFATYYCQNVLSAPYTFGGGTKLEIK	OD	1.01
recombinant humanized anti-CD66c antibody Protein ID 2938 (Vk5 + VH7) (antibody, human IgG1, V domains shown, also called hu 2938) VH: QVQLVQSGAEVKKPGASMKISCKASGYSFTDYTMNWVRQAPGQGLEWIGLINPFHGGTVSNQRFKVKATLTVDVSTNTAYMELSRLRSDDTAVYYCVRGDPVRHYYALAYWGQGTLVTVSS VL: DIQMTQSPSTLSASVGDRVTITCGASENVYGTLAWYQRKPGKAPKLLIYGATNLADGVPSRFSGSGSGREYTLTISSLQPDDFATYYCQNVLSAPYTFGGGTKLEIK	OD	0.32
